These entries and their values trace back to patent US5716928A.

System: rat cytochrome P450 3A
Run conditions: oil ingredient 0.0001 wt. %; from solvent baseline
Y means recorded % inhibition of cyclosporine metabolism, 0.0001% (Table 2) is 20% or above; N means it is below 20%.

INSERT INTO assay_data (molecule, category) VALUES
  ('C=C1CC[C@H]2C[C@@H]1C2(C)C [Pinene-(1S)-(-)-β]', 'N'),
  ('C=CC(C)(O)CCC=C(C)C (racemic) [Linalool-(±), 3,7-Dimethyl-1,6-octadien-3-ol]', 'Y'),
  ('CCOC(=O)/C=C/c1ccccc1 [Ethyl Cinnamate, trans-, Ethyl 3-phenylpropenoic acid]', 'N'),
  ('CC(C)=C1CC[C@@H](C)CC1=O [Pulegone-(R)-(+), p-Menth-4(8)-en-3-one]', 'N'),
  ('C=CC(=C)CCC=C(C)C', 'N'),
  ('CC(C)=CCC/C(C)=C/CC/C(C)=C/CO [Farnesol. trans-, trans-, 3,7,11-Trimethyl-2,6,10-dodecatrien-1-ol]', 'Y'),
  ('CC1(C)C(=O)[C@]2(C)CC[C@H]1C2 [Fenchone-(1R)-(-)]', 'N'),
  ('C=CCc1ccc(OC)cc1', 'N'),
  ('C=C1C2CCC(C2)C1(C)C (single isomer, unassigned) [Camphene-(+)]', 'N'),
  ('COc1cc(CNC(=O)CCCC/C=C/C(C)C)ccc1O [Capsaicin, trans-8-Methyl-N-vanillyl-6 nonenamide]', 'Y'),
  ('CC=C(C)C=CC=C(C)C', 'N'),
  ('CC1(C)[C@H]2CC[C@](C)(C2)[C@H]1O [Fenchol-(1R)-endo-(+)]', 'N'),
  ('CC1=CCC(O)(C(C)C)CC1 (stereo not drawn)', 'N'),
  ('COC(=O)c1ccccc1N [Mcthyl Anthranilate, Methyl 2-aminobenzoate]', 'N'),
  ('C=CCc1ccc(O)c(OC)c1', 'N'),
  ('C=C1CC/C=C(\C)CC[C@@H]2[C@@H]1CC2(C)C [Caryophyllene, trans-(-), β Caryophyllene]', 'Y'),
  ('C=C(C)[C@@H]1CC=C(C)C(=O)C1 [Carvone-(R)-(-), p-Mentha-6,8-dien-2-one]', 'Y'),
  ('Cc1ccc(C(C)C)cc1O', 'N'),
  ('CC1=CCC(C(C)(C)O)CC1 (stereo not drawn)', 'N'),
  ('CC/C=C\CC1=C(C)CCC1=O [Jasmone, cis-]', 'N'),
  ('CC(C)=CCC/C(C)=C/C=O', 'Y'),
  ('O=C(/C=C/c1ccccc1)OCc1ccccc1 [Benzyl Cinnamate, Benzyl 3-phenylpropenoic acid]', 'N'),
  ('CC(C)=CCCC(C)CCO (stereo not drawn)', 'Y'),
  ('CC1=CC=C(C(C)C)CC1', 'N'),
  ('C=C(C)[C@H]1CC=C(C)C(=O)C1 [Carvone-(S)-(+), p-Mentha-6,8-dien-2-one]', 'Y'),
  ('CC(C)[C@@H]1CC[C@@H](C)CC1=O [Menthone-(-), p-Menthan-3-one]', 'N'),
  ('C=C(C)C1CC=C(C)C(O)C1 (single isomer, unassigned) [Carveol-(-), p-Mentha-6,8-dien-2-ot]', 'N');

---

System: rat cytochrome P450 3A
Run conditions: oil ingredient 0.001 wt. %; from solvent baseline
Observable: % inhibition of cyclosporine metabolism, 0.001% (Table 2)

INSERT INTO assay_data (molecule, recorded_value) VALUES
  ('CC(C)=C1CC[C@@H](C)CC1=O [Pulegone-(R)-(+), p-Menth-4(8)-en-3-one]', '31%'),
  ('C=CCc1ccc(O)c(OC)c1', '66%'),
  ('C=C1CC[C@H]2C[C@@H]1C2(C)C [Pinene-(1S)-(-)-β]', '60%'),
  ('O=C/C=C/c1ccccc1 [Cinnamic Aldehyde, trans-, 3-Phenylpropenaldehyde]', '29.0%'),
  ('C=CCc1ccc(OC)cc1', '69.2%'),
  ('CC(=O)OC/C=C(\C)CCC=C(C)C [Geranyl Acetate]', '51.5%'),
  ('C=C1C2CCC(C2)C1(C)C (single isomer, unassigned) [Camphene-(+)]', '12.4%'),
  ('C=C(C)C1CC=C(C)C(O)C1 (single isomer, unassigned) [Carveol-(-), p-Mentha-6,8-dien-2-ot]', '60%'),
  ('CC=C(C)C=CC=C(C)C', '22%');

---

System: rat cytochrome P450 3A
Run conditions: oil ingredient 0.01 wt. %; from solvent baseline
Observable: % inhibition of cyclosporine metabolism, 0.01% (Table 2) (%)

INSERT INTO results (molecule, unit_label, recorded_value) VALUES
  ('CC(C)=CCCC(C)CCO (stereo not drawn)', '%', 95),
  ('C=CC(C)(O)CCC=C(C)C (racemic) [Linalool-(±), 3,7-Dimethyl-1,6-octadien-3-ol]', '%', 85),
  ('CC1=CCC(C(C)(C)O)CC1 (stereo not drawn)', '%', 100),
  ('C=C(C)[C@@H]1CC=C(C)C(=O)C1 [Carvone-(R)-(-), p-Mentha-6,8-dien-2-one]', '%', 100),
  ('CC(C)=CCC/C(C)=C/C=O', '%', 99),
  ('C=C(C)[C@H]1CC=C(C)CC1 [Limonene-(R)-(+), p-Mentha-1,8-diene]', '%', 84),
  ('C/C=C/c1ccc(OC)cc1 [Anethole, trans-, 4-Propenylanisole]', '%', 100),
  ('O=C/C=C/c1ccccc1 [Cinnamic Aldehyde, trans-, 3-Phenylpropenaldehyde]', '%', 78),
  ('CC1(C)[C@H]2CC[C@](C)(C2)[C@H]1O [Fenchol-(1R)-endo-(+)]', '%', 100);

---

System: rat cytochrome P450 3A
Run conditions: oil ingredient 0.001 wt. %; from solvent baseline
Observable: % inhibition of cyclosporine metabolism, 0.001% (Table 2) (%)

INSERT INTO results (compound, recorded_value) VALUES
  ('CC1=CCC(O)(C(C)C)CC1 (stereo not shown) [Terpinen-4-ol, p-Menth-1-en-4-ol]', 80),
  ('C=C(C)[C@H]1CC=C(C)C(=O)C1 [Carvone-(S)-(+), p-Mentha-6,8-dien-2-one]', 70.5),
  ('COC(=O)c1ccccc1N [Mcthyl Anthranilate, Methyl 2-aminobenzoate]', 23),
  ('COc1cc(CNC(=O)CCCC/C=C/C(C)C)ccc1O [Capsaicin, trans-8-Methyl-N-vanillyl-6 nonenamide]', 68);

---

Tested on: rat cytochrome P450 3A
Run conditions: oil ingredient 0.001 wt. %; from solvent baseline
% inhibition of cyclosporine metabolism, 0.001% (Table 2) by entry:
Observable: % inhibition of cyclosporine metabolism, 0.001% (Table 2) (%)

INSERT INTO results (compound, recorded_value) VALUES
  ('CC(C)=CCCC(C)CCO (stereo not drawn) [Citronellol-(DL)-(β), 3,7-Dimethyl-6-octen-1-ol]', 86),
  ('CC1=CCC(C(C)(C)O)CC1 (stereo not drawn) [Terpineol-α, p-Menth-1-en-8-ol]', 86),
  ('CC(C)=CCC/C(C)=C/CC/C(C)=C/CO [Farnesol. trans-, trans-, 3,7,11-Trimethyl-2,6,10-dodecatrien-1-ol]', 82),
  ('O=C(/C=C/c1ccccc1)OCc1ccccc1 [Benzyl Cinnamate, Benzyl 3-phenylpropenoic acid]', -45),
  ('C=C(C)[C@@H]1CC=C(C)CC1 [Limonene-(S)-(-), p-Mentha-1,8-diene]', 30),
  ('C=CC(C)(CCC=C(C)C)OC(C)=O (centres unmarked) [Linalyl Acetate, 3,7-Dimethyl-1,6-octadien-3-yl acetate]', 55.8),
  ('CC1=CC=C(C(C)C)CC1 [Terpinene-α, p-Mentha-1,3-diene]', 28),
  ('C=C(C)[C@H]1CC=C(C)CC1 [Limonene-(R)-(+), p-Mentha-1,8-diene]', 20);

---

Test system: rat cytochrome P450 3A
Run conditions: oil ingredient 0.01 wt. %; from solvent baseline
% inhibition of cyclosporine metabolism, 0.01% (Table 2) by entry:
Observable: % inhibition of cyclosporine metabolism, 0.01% (Table 2) (%)

INSERT INTO measurements (compound, unit_label, recorded_value) VALUES
  ('C=C1CC[C@H]2C[C@@H]1C2(C)C [Pinene-(1S)-(-)-β]', '%', 88),
  ('CC1=CCC(O)(C(C)C)CC1 (stereo not drawn)', '%', 100),
  ('C=C(C)[C@@H]1CC=C(C)CC1 [Limonene-(S)-(-), p-Mentha-1,8-diene]', '%', 82.3),
  ('Cc1ccc(C(C)C)cc1O', '%', 97),
  ('C=CCc1ccc(OC)cc1', '%', 100),
  ('CCOc1cc(C=O)ccc1O [Ethyl Vanillin, 3-Ethoxy-4-hydroxybenzaledhyde]', '%', 58),
  ('CC(=O)OC/C=C(\C)CCC=C(C)C [Geranyl Acetate]', '%', 73),
  ('C=CC(C)(CCC=C(C)C)OC(C)=O (stereo not drawn) [Linalyl Acetate, 3,7-Dimethyl-1,6-octadien-3-yl acetate]', '%', 100),
  ('C=CCc1ccc(O)c(OC)c1', '%', 100);
